log2 fractional inhibitory concentration for assorted molecules
Tested on: Mycobacterium tuberculosis Erdman (pMV306hsp+LuxG13)
test.description: log2 fractional inhibitory concentration at 90% inhibition (log2 FIC); higher = more antagonistic
protocol.conditions: growth medium: hypoxic dormancy (butyrate + nitrate), then recovery; time point: terminal time point

# molecule, log2 fractional inhibitory concentration
records = [
    ("NNC(=O)c1ccncc1 [isoniazid] + CC(=O)NC[C@H]1CN(c2ccc(N3CCSCC3)c(F)c2)C(=O)O1 [sutezolid]", -0.485),
    ("COc1c(N2C[C@@H]3CCCN[C@@H]3C2)c(F)cc2c(=O)c(C(=O)O)cn(C3CC3)c12 [moxifloxacin] + CC(=O)NC[C@H]1CN(c2ccc(N3CCSCC3)c(F)c2)C(=O)O1", 0.502),
    ("NNC(=O)c1ccncc1 [isoniazid] + CC(C)=CCC/C(C)=C/CNCCNC1C2CC3CC(C2)CC1C3 [SQ109]", -0.76),
]
